- System: NCI-H1975
- Procedure Text: Anticancer activity against human NCI-H1975 cells incubated for 72 hrs by MTT assay
- Type: functional, cell-based
- Test Parameters: NCI-H1975, 72 h
Parameter: pIC50
Scale: pIC50 equals -log10([C]), with [C] in mol/L.

Prompt: Which pIC50 reading was recorded for the compound `COc1cc(-c2cnc3sc(-c4cccc(NS(=O)(=O)c5cc(F)ccc5F)c4C)nc3c2)ccn1` ?
Response: 6.74

Prompt: Lookup `Cc1c(N)cccc1-c1nc2cccnc2s1`
Response: 4.90

Prompt: Lookup `Cc1c(NS(=O)(=O)c2ccc(F)cc2F)cccc1-c1nc2cccnc2s1`
Response: 5.68

Prompt: Lookup `COc1ccc(F)cc1S(=O)(=O)Nc1cccc(-c2nc3cc(-c4cc[nH]n4)cnc3s2)c1C`
Response: 5.31

Prompt: Lookup `Cc1c(NS(=O)(=O)c2cc(F)ccc2F)cccc1-c1nc2cc(-c3ccccc3)cnc2s1`
Response: 6.66

Prompt: Lookup `COc1ccc(F)cc1S(=O)(=O)Nc1cccc(-c2nc3cc(-c4cccnc4)cnc3s2)c1C`
Response: 5.21

Prompt: Lookup `COc1ccc(F)cc1S(=O)(=O)Nc1cccc(-c2nc3cc(-c4cnc(N)nc4)cnc3s2)c1C`
Response: 5.38

Prompt: Lookup `COc1ccc(F)cc1S(=O)(=O)Nc1cccc(-c2nc3cc(-c4cccc(C(F)(F)F)c4)cnc3s2)c1C`
Response: 5.21

Prompt: Lookup `COc1ccc(F)cc1S(=O)(=O)Nc1cccc(-c2nc3cc(-c4ccc(C(F)(F)F)nc4)cnc3s2)c1C`
Response: 5.35

Prompt: Lookup `COc1ccc(F)cc1S(=O)(=O)Nc1cccc(-c2nc3cc(-c4cccs4)cnc3s2)c1C`
Response: 5.33

Prompt: Lookup `Cc1c(NS(=O)(=O)c2cc(F)ccc2F)cccc1-c1nc2cc(CN3CCCC3)cnc2s1`
Response: 6.28

Prompt: Lookup `Cc1c(NS(=O)(=O)c2ccccc2OC(F)(F)F)cccc1-c1nc2cccnc2s1`
Response: 5.66

Prompt: Lookup `Cc1c(NS(=O)(=O)c2cc(F)ccc2F)cccc1-c1nc2cc(-c3ccc(C(F)(F)F)nc3)cnc2s1`
Response: 6.66

###

- System: NCI-H1975
- Procedure Text: Anticancer activity against human NCI-H1975 cells incubated for 72 hrs by MTT assay
- Format: functional, cell-based
- Test Parameters: NCI-H1975, 72 h
Listed next: entries and their corresponding pIC50.
Scale: pIC50 equals -log10([C]), with [C] in mol/L.

Use these answered entries as a reference point.
[[record]]
structure = "Cc1c(NS(=O)(=O)c2cc(F)ccc2F)cccc1-c1nc2cccnc2s1"
parameter = "pIC50"
obs_value = 5.96

[[record]]
structure = "Cc1c(NS(=O)(=O)Cc2ccccc2)cccc1-c1nc2cccnc2s1"
parameter = "pIC50"
obs_value = 5.47


Prompt: Which pIC50 reading was recorded for the molecule `Cc1c(NS(=O)(=O)c2cnn(C)c2)cccc1-c1nc2cccnc2s1` ?
Response: 5.48

Prompt: Lookup `Cc1c(NS(=O)(=O)c2cc(F)ccc2F)cccc1-c1nc2cc(CN3CCN(C)CC3)cnc2s1`
Response: 6.11

Prompt: Lookup `Cc1c(NS(=O)(=O)c2ccc(F)c(C#N)c2)cccc1-c1nc2cccnc2s1`
Response: 5.68

Prompt: Lookup `COc1ccc(F)cc1S(=O)(=O)Nc1cccc(-c2nc3cc(CN4CCN(C)CC4)cnc3s2)c1C`
Response: 5.34

Prompt: Lookup `COc1ccc(F)cc1S(=O)(=O)Nc1cccc(-c2nc3cc(-c4cccnc4OC)cnc3s2)c1C`
Response: 5.34

###

- Test system: NCI-H1975
- Procedure Text: Anticancer activity against human NCI-H1975 cells incubated for 72 hrs by MTT assay
- Format: functional, cell-based
- Test Parameters: NCI-H1975, 72 h
Parameter: pIC50
Scale: pIC50 equals -log10([C]), with [C] in mol/L.

[[record]]
structure = "CSc1ncc(-c2cnc3sc(-c4cccc(NS(=O)(=O)c5cc(F)ccc5F)c4C)nc3c2)cn1"
parameter = "pIC50"
obs_value = 7.05

[[record]]
structure = "Cc1c(NS(=O)(=O)c2cc(F)ccc2F)cccc1-c1nc2cc(-c3cncnc3)cnc2s1"
parameter = "pIC50"
obs_value = 6.96

[[record]]
structure = "COc1cc(-c2cnc3sc(-c4cccc(NS(=O)(=O)c5cc(F)ccc5OC)c4C)nc3c2)ccn1"
parameter = "pIC50"
obs_value = 5.34

[[record]]
structure = "Cc1c(NS(=O)(=O)c2cc(F)ccc2F)cccc1-c1nc2cc(C#N)cnc2s1"
parameter = "pIC50"
obs_value = 6.55

[[record]]
structure = "Cc1c(NS(=O)(=O)c2cc(F)ccc2F)cccc1-c1nc2cc(-c3cccs3)cnc2s1"
parameter = "pIC50"
obs_value = 6.52


Would you kindly look at the next entry?
Prompt: Which pIC50 reading was recorded for the compound `COc1ccc(F)cc1S(=O)(=O)Nc1cccc(-c2nc3cc(-c4ccccc4)cnc3s2)c1C` ?
Response: 5.21
